FYI, the data here is from paper PMC3008316.

- Tested on: Vero cells
- measurement_conditions: monkey
reported_endpoint: CC50 (mM)
The figure you give is taken to be in mM; do not add the unit.

Data request: Using the record for NC(=O)c1nc(F)cnc1O [T-705, 6-fluoro-3-hydroxy-2-pyrazinecarboxamide] , state its measured CC50.
Data returned: 4.86

###

- test_summary: in vitro
- measurement_conditions: monkey, CC50 ± SD
CC50: recorded values

Data request: Using the record for "NC(=O)c1nccn([C@@H]2O[C@H](CO)[C@@H](O)[C@H]2O)c1=O" , state its measured CC50.
Data returned: > 3.71 mM

Turning to the following compound.
Data request: Using the record for NC(=O)c1nc(F)cnc1O [T-705, 6-fluoro-3-hydroxy-2-pyrazinecarboxamide] , state its measured CC50.
Data returned: > 6.36 mM
